Where these numbers come from: the supplement of paper PMC7380943

Test system: CLZ3 (HCA2 human fibroblast dual HR-NHEJ reporter);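 also: compound given one day before doxycycline, which switches on I-SceI endonuclease expression to create double-strand breaks within the integrated reporter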
Assay: HR repair efficiency (tdTomato+ cells) relative to control (log10 fold); higher = more homologous recombination
Conditions: 5 µM; doxycycline 0.5 ug/mL
METRIC: HR repair efficiency (log10)

INSERT INTO measurements (compound, assayed_target, observed) VALUES
  ('O=C1OC2(c3ccccc3Oc3ccccc32)c2ccccc21', 'CLZ3 (HCA2 human fibroblast dual HR-NHEJ reporter)', 0.0374),
  ('C=CC1=C(C)/C(=C/c2[nH]c(Cc3[nH]c(/C=C4\NC(=O)C(C)=C4C=C)c(C)c3CCC(=O)O)c(CCC(=O)O)c2C)NC1=O', 'CLZ3 (HCA2 human fibroblast dual HR-NHEJ reporter)', -0.0828),
  ('C=C(C)[C@@H]1CC[C@]2(C)CC[C@]3(C)[C@H](CC[C@@H]4[C@@]5(C)CC[C@H](O)C(C)(C)[C@@H]5CC[C@]43C)[C@@H]12', 'CLZ3 (HCA2 human fibroblast dual HR-NHEJ reporter)', 0.06),
  ('CC1(C)CC[C@]2(C(=O)O[C@@H]3O[C@H](CO)[C@@H](O)[C@H](O)[C@H]3O)CC[C@]3(C)C(=CC[C@@H]4[C@@]5(C)CC[C@H](O[C@@H]6O[C@H](C(=O)O)[C@@H](O)[C@H](O)[C@H]6O[C@@H]6O[C@H](CO)[C@@H](O)[C@H](O)[C@H]6O)C(C)(C)[C@@H]5CC[C@]43C)[C@@H]2C1 [Ginsenoside Ro]', 'CLZ3 (HCA2 human fibroblast dual HR-NHEJ reporter)', 0.3),
  ('C/C=C/c1cc(OC)c2c(c1)C(C)C(c1ccc(O)c(OC)c1)O2 (stereo not given) [Dehydrodiisoeugenol]', 'CLZ3 (HCA2 human fibroblast dual HR-NHEJ reporter)', -0.0825),
  ('CC(C)=CCc1c(-c2ccc(O)cc2O)oc2c([C@H]3C=C(C)C[C@@H](c4ccc(O)cc4O)[C@@H]3C(=O)c3ccc(O)cc3O)c(O)cc(O)c2c1=O', 'CLZ3 (HCA2 human fibroblast dual HR-NHEJ reporter)', 0.129),
  ('NCC(=O)O', 'CLZ3 (HCA2 human fibroblast dual HR-NHEJ reporter)', 0.151),
  ('CC1(C)[C@@H](O[C@H]2O[C@H](C(=O)O)[C@@H](O)[C@H](O)[C@H]2O[C@@H]2O[C@H](C(=O)O)[C@@H](O)[C@H](O)[C@H]2O)CC[C@]2(C)[C@H]3C(=O)C=C4[C@@H]5C[C@@](C)(C(=O)O)CC[C@]5(C)CC[C@@]4(C)[C@]3(C)CC[C@@H]12 [Monoammonium Glycyrrhizinate]', 'CLZ3 (HCA2 human fibroblast dual HR-NHEJ reporter)', -0.00605),
  ('Cc1c(S(=O)(=O)O)oc2c1C(=O)C(=O)c1c-2ccc2c1CCCC2(C)C [Tanshinone Iia Sodium Sulfonate]', 'CLZ3 (HCA2 human fibroblast dual HR-NHEJ reporter)', 0.126),
  ('C=CCc1ccc(O)c(-c2cc(CC=C)ccc2O)c1', 'CLZ3 (HCA2 human fibroblast dual HR-NHEJ reporter)', 0.105),
  ('O=c1c(O)cc([C@H]2Oc3cc(O)cc(O)c3C[C@H]2O)cc2c([C@H]3Oc4cc(O)cc(O)c4C[C@H]3O)cc(O)c(O)c12', 'CLZ3 (HCA2 human fibroblast dual HR-NHEJ reporter)', 0.0415),
  ('c1cc2c(cc1O[C@H]1OC[C@H]3[C@@H]1CO[C@@H]3c1ccc3c(c1)OCO3)OCO2', 'CLZ3 (HCA2 human fibroblast dual HR-NHEJ reporter)', 0.22),
  ('O=C(O)/C=C/c1ccc(O)cc1', 'CLZ3 (HCA2 human fibroblast dual HR-NHEJ reporter)', 0.212),
  ('COc1ccc(-c2oc3cc(O)cc(O)c3c(=O)c2O)cc1 [Kaempferide]', 'CLZ3 (HCA2 human fibroblast dual HR-NHEJ reporter)', -0.167),
  ('C/C=C1/[C@H](O[C@@H]2O[C@H](CO)[C@@H](O)[C@H](O)[C@H]2O)OC=C(C(=O)OC)[C@H]1CC(=O)OCCc1ccc(O)c(O)c1', 'CLZ3 (HCA2 human fibroblast dual HR-NHEJ reporter)', 0.0478),
  ('CC1CCC(C(C)C)C(O)C1 (racemic) [dl-Menthol]', 'CLZ3 (HCA2 human fibroblast dual HR-NHEJ reporter)', 0.0753),
  ('O=C(/C=C/c1ccc(O)c(O)c1)O[C@@H]1C[C@](O)(C(=O)O)C[C@@H](O)[C@H]1O', 'CLZ3 (HCA2 human fibroblast dual HR-NHEJ reporter)', -0.132),
  ('OCC1=C[C@@H](O)[C@]2(O[C@@H]3O[C@H](CO)[C@@H](O)[C@H](O)[C@H]3O)C=CO[C@@H](O[C@@H]3O[C@H](CO)[C@@H](O)[C@H](O)[C@H]3O)[C@H]12 [Melittoside]', 'CLZ3 (HCA2 human fibroblast dual HR-NHEJ reporter)', 0.096),
  ('C[C@@H]1O[C@@H](O[C@H]2[C@H](Oc3c(-c4ccc(O)cc4)oc4cc(O)cc(O)c4c3=O)O[C@H](CO)[C@@H](O)[C@@H]2O)[C@H](O)[C@H](O)[C@H]1O [Kaempferol 3-O-Neohesperidoside]', 'CLZ3 (HCA2 human fibroblast dual HR-NHEJ reporter)', 0.307),
  ('CC(C)(O)CC[C@@H](O)C(C)(O)[C@H]1CC[C@@]2(O)C3=CC(=O)[C@@H]4C[C@@H](O)[C@@H](O)C[C@]4(C)[C@H]3CC[C@]12C (stereo partly drawn) [Β-Hydroxyecdysone]', 'CLZ3 (HCA2 human fibroblast dual HR-NHEJ reporter)', 0.056),
  ('O=c1cc(-c2ccc(O)c(O)c2)oc2c([C@@H]3O[C@H](CO)[C@@H](O)[C@H](O)[C@H]3O)c(O)cc(O)c12', 'CLZ3 (HCA2 human fibroblast dual HR-NHEJ reporter)', 0.0493),
  ('C/C1=C/CC[C@H](C)C(=O)C[C@@H](C(C)C)C(=O)C1', 'CLZ3 (HCA2 human fibroblast dual HR-NHEJ reporter)', 0.0177),
  ('O=C1O[C@H]2[C@@H]3OC(=O)c4cc(O)c(O)c(O)c4-c4c(cc(O)c(O)c4O)C(=O)OC[C@H]2O[C@@H](OC(=O)c2cc(O)c(O)c(O)c2)[C@@H]3OC(=O)c2cc(O)c(O)c3c2[C@@H]2C1=CC(=O)[C@](O)(O3)C2(O)O', 'CLZ3 (HCA2 human fibroblast dual HR-NHEJ reporter)', 0.0593),
  ('CC1(C)CC[C@]2(C(=O)O)CC[C@]3(C)C(=CC[C@@H]4[C@@]5(C)C[C@@H](O)[C@H](O)C(C)(C)[C@@H]5CC[C@]43C)[C@@H]2C1', 'CLZ3 (HCA2 human fibroblast dual HR-NHEJ reporter)', -0.0914),
  ('COc1ccc(-c2cc(=O)c3c(O)c(OC)c(O)cc3o2)cc1', 'CLZ3 (HCA2 human fibroblast dual HR-NHEJ reporter)', -0.0222);
